# Experiment description: Aqueous solubility of roxithromycin (pH, buffer, ethanol)
# Type: physicochemical
# Cond: phosphate buffer with ethanol co-solvent, 25 °C, pH 7, aqueous with cosolvent or surfactant or cyclodextrin, thermodynamic from solid, pH 7, 20 mM phosphate, 10% ethanol
# Protocol: The solutions were syringe-filtered and analyzed by HPLC for [roxithromycin]. Roxithromycin Potency was assayed by a reverse-phase HPLC method that meets the requirements of the European Pharmacopeia (EP) Monograph for roxithromycin. Solution pH values were determined per USP <791> and solution osmolality values were determined per USP <785>. […]
Property label: solubility at 24 h (µg/mL)
Please give a number only; it is taken to be in µg/mL.

Form field: reported solubility at 24 h of CC[C@H]1OC(=O)[C@H](C)[C@@H](O[C@H]2C[C@@](C)(OC)[C@@H](O)[C@H](C)O2)[C@H](C)[C@@H](O[C@@H]2O[C@H](C)C[C@H](N(C)C)[C@H]2O)[C@](C)(O)C[C@@H](C)/C(=N\OCOCCOC)[C@H](C)[C@@H](O)[C@]1(C)O [roxithromycin] 2100

---

# Experiment description: Aqueous solubility of roxithromycin (pH, buffer, ethanol)
# Format: physicochemical
# Cond: phosphate buffer with ethanol co-solvent, 25 °C, pH 5, aqueous with cosolvent or surfactant or cyclodextrin, thermodynamic from solid, pH 5, 50 mM phosphate, 10% ethanol
Property label: solubility at 24 h (µg/mL)
Please give a number only; it is taken to be in µg/mL.

Form field: reported solubility at 24 h of `CC[C@H]1OC(=O)[C@H](C)[C@@H](O[C@H]2C[C@@](C)(OC)[C@@H](O)[C@H](C)O2)[C@H](C)[C@@H](O[C@@H]2O[C@H](C)C[C@H](N(C)C)[C@H]2O)[C@](C)(O)C[C@@H](C)/C(=N\OCOCCOC)[C@H](C)[C@@H](O)[C@]1(C)O` 9200

---

# Experiment description: Aqueous solubility of roxithromycin (pH, buffer, ethanol)
# Assay type: physicochemical
# Cond: citrate buffer, 25 °C, pH 6, aqueous buffer, thermodynamic from solid, 200 mM citrate, pH 6
Property label: solubility at 24 h (µg/mL)
Please give a number only; it is taken to be in µg/mL.

Form field: reported solubility at 24 h of `CC[C@H]1OC(=O)[C@H](C)[C@@H](O[C@H]2C[C@@](C)(OC)[C@@H](O)[C@H](C)O2)[C@H](C)[C@@H](O[C@@H]2O[C@H](C)C[C@H](N(C)C)[C@H]2O)[C@](C)(O)C[C@@H](C)/C(=N\OCOCCOC)[C@H](C)[C@@H](O)[C@]1(C)O` 1720

---

# Experiment description: Aqueous solubility of roxithromycin (pH, buffer, ethanol)
# Type: physicochemical
# Cond: citrate buffer, 25 °C, pH 6, aqueous buffer, thermodynamic from solid, 20 mM citrate, pH 6
Property label: solubility at 24 h
Please format your answer as a value with the unit trailing.

Form field: reported solubility at 24 h of `CC[C@H]1OC(=O)[C@H](C)[C@@H](O[C@H]2C[C@@](C)(OC)[C@@H](O)[C@H](C)O2)[C@H](C)[C@@H](O[C@@H]2O[C@H](C)C[C@H](N(C)C)[C@H]2O)[C@](C)(O)C[C@@H](C)/C(=N\OCOCCOC)[C@H](C)[C@@H](O)[C@]1(C)O` 2450 µg/mL

---

# Experiment description: Aqueous solubility of roxithromycin (pH, buffer, ethanol)
# Type: physicochemical
# Cond: phosphate buffer with ethanol co-solvent, 25 °C, pH 6, aqueous with cosolvent or surfactant or cyclodextrin, thermodynamic from solid, pH 6, 20 mM phosphate, 10% ethanol
Property label: solubility at 24 h

Form field: reported solubility at 24 h of `CC[C@H]1OC(=O)[C@H](C)[C@@H](O[C@H]2C[C@@](C)(OC)[C@@H](O)[C@H](C)O2)[C@H](C)[C@@H](O[C@@H]2O[C@H](C)C[C@H](N(C)C)[C@H]2O)[C@](C)(O)C[C@@H](C)/C(=N\OCOCCOC)[C@H](C)[C@@H](O)[C@]1(C)O` 5000 µg/mL

---

# Experiment description: Aqueous solubility of roxithromycin (pH, buffer, ethanol)
# Format: physicochemical
# Cond: phosphate buffer with ethanol co-solvent, 25 °C, pH 6, aqueous with cosolvent or surfactant or cyclodextrin, thermodynamic from solid, pH 6, 10 mM phosphate, 5% ethanol
Property label: solubility at 24 h (µg/mL)
Please give a number only; it is taken to be in µg/mL.

Form field: reported solubility at 24 h of `CC[C@H]1OC(=O)[C@H](C)[C@@H](O[C@H]2C[C@@](C)(OC)[C@@H](O)[C@H](C)O2)[C@H](C)[C@@H](O[C@@H]2O[C@H](C)C[C@H](N(C)C)[C@H]2O)[C@](C)(O)C[C@@H](C)/C(=N\OCOCCOC)[C@H](C)[C@@H](O)[C@]1(C)O` 4100

---

# Experiment description: Aqueous solubility of roxithromycin (pH, buffer, ethanol)
# Format: physicochemical
# Cond: phosphate buffer with ethanol co-solvent, 25 °C, pH 6, aqueous with cosolvent or surfactant or cyclodextrin, thermodynamic from solid, pH 6, 50 mM phosphate, 5% ethanol
# Method: The solutions were syringe-filtered and analyzed by HPLC for [roxithromycin]. Roxithromycin Potency was assayed by a reverse-phase HPLC method that meets the requirements of the European Pharmacopeia (EP) Monograph for roxithromycin. Solution pH values were determined per USP <791> and solution osmolality values were determined per USP <785>. […]
Property label: solubility at 24 h (µg/mL)
Please give a number only; it is taken to be in µg/mL.

Form field: reported solubility at 24 h of `CC[C@H]1OC(=O)[C@H](C)[C@@H](O[C@H]2C[C@@](C)(OC)[C@@H](O)[C@H](C)O2)[C@H](C)[C@@H](O[C@@H]2O[C@H](C)C[C@H](N(C)C)[C@H]2O)[C@](C)(O)C[C@@H](C)/C(=N\OCOCCOC)[C@H](C)[C@@H](O)[C@]1(C)O` 8100

---

# Experiment description: Aqueous solubility of roxithromycin (pH, buffer, ethanol)
# Type: physicochemical
# Cond: phosphate buffer with ethanol co-solvent, 25 °C, pH 5, aqueous with cosolvent or surfactant or cyclodextrin, thermodynamic from solid, pH 5, 20 mM phosphate, 5% ethanol
Property label: solubility at 24 h (µg/mL)
Please give a number only; it is taken to be in µg/mL.

Form field: reported solubility at 24 h of `CC[C@H]1OC(=O)[C@H](C)[C@@H](O[C@H]2C[C@@](C)(OC)[C@@H](O)[C@H](C)O2)[C@H](C)[C@@H](O[C@@H]2O[C@H](C)C[C@H](N(C)C)[C@H]2O)[C@](C)(O)C[C@@H](C)/C(=N\OCOCCOC)[C@H](C)[C@@H](O)[C@]1(C)O` 5500

---

# Experiment description: Aqueous solubility of roxithromycin (pH, buffer, ethanol)
# Format: physicochemical
# Cond: phosphate buffer, 25 °C, pH 6, aqueous buffer, thermodynamic from solid, pH 6, 20 mM phosphate, 0% ethanol
# Procedure: The solutions were syringe-filtered and analyzed by HPLC for [roxithromycin]. Roxithromycin Potency was assayed by a reverse-phase HPLC method that meets the requirements of the European Pharmacopeia (EP) Monograph for roxithromycin. Solution pH values were determined per USP <791> and solution osmolality values were determined per USP <785>. […]
Property label: solubility at 24 h (µg/mL)
Please give a number only; it is taken to be in µg/mL.

Form field: reported solubility at 24 h of CC[C@H]1OC(=O)[C@H](C)[C@@H](O[C@H]2C[C@@](C)(OC)[C@@H](O)[C@H](C)O2)[C@H](C)[C@@H](O[C@@H]2O[C@H](C)C[C@H](N(C)C)[C@H]2O)[C@](C)(O)C[C@@H](C)/C(=N\OCOCCOC)[C@H](C)[C@@H](O)[C@]1(C)O [roxithromycin] 4200

---

# Experiment description: Aqueous solubility of roxithromycin (pH, buffer, ethanol)
# Format: physicochemical
# Cond: citrate buffer, 25 °C, pH 7, aqueous buffer, thermodynamic from solid, 50 mM citrate, pH 7
Property label: solubility at 24 h
Please format your answer as a value with the unit trailing.

Form field: reported solubility at 24 h of CC[C@H]1OC(=O)[C@H](C)[C@@H](O[C@H]2C[C@@](C)(OC)[C@@H](O)[C@H](C)O2)[C@H](C)[C@@H](O[C@@H]2O[C@H](C)C[C@H](N(C)C)[C@H]2O)[C@](C)(O)C[C@@H](C)/C(=N\OCOCCOC)[C@H](C)[C@@H](O)[C@]1(C)O [roxithromycin] 980 µg/mL

---

# Experiment description: Aqueous solubility of roxithromycin (pH, buffer, ethanol)
# Assay type: physicochemical
# Cond: citrate buffer, 25 °C, pH 7, aqueous buffer, thermodynamic from solid, 200 mM citrate, pH 7
Property label: solubility at 24 h
Please format your answer as a value with the unit trailing.

Form field: reported solubility at 24 h of CC[C@H]1OC(=O)[C@H](C)[C@@H](O[C@H]2C[C@@](C)(OC)[C@@H](O)[C@H](C)O2)[C@H](C)[C@@H](O[C@@H]2O[C@H](C)C[C@H](N(C)C)[C@H]2O)[C@](C)(O)C[C@@H](C)/C(=N\OCOCCOC)[C@H](C)[C@@H](O)[C@]1(C)O [roxithromycin] 1250 µg/mL
